Tested on: RARg homodimer (NR concentration 270 nM)
Experiment: PBM binding z-score (relative to random genomic background probes); higher = stronger binding; sequences stand for … in GC…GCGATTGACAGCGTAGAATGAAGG
Param threshold (4) applies to PBM binding z-score; output yes (1) when value >= threshold, no (0) when value < threshold.

Problem: // inclusive: PBM binding z-score at least 4? input: CCTACTGGGCCACGGTCATTGATCAGTCAAAGCA
Solution: no (0)

Problem: // inclusive: PBM binding z-score at least 4? input: CAAACTAGGTAACGAAAGGTCAAAGTCGAATGAC
Solution: yes (1)

Problem: // inclusive: PBM binding z-score at least 4? input: ATCTCTAGGTAAAGATAGTTCAGTGGATGCAAAT
Solution: no (0)

Problem: // inclusive: PBM binding z-score at least 4? input: CAGCCTAGGTCAGGGGCAGTATAGGAGGAACGTT
Solution: yes (1)

Problem: // inclusive: PBM binding z-score at least 4? input: CGTCAAAGTACAAGGTAACGTAACAGAAAGCAGC
Solution: no (0)

New cases:
Problem: // inclusive: PBM binding z-score at least 4? input: ACTAGTTGGTCAGCTGAAGTCACACACAATTCGG
Solution: no (0)

---

Test system: PPARg:RXRa 90nM:30nM, anti-RXR (NR concentration 90 nM, RXRa partner concentration 30 nM)
Assay: PBM binding z-score (relative to random genomic background probes); higher = stronger binding; sequences stand for … in GC…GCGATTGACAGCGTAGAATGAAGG
Param threshold (3) applies to PBM binding z-score; output class 1 when value >= threshold, class 0 when value < threshold.

Solved entries:
Problem: // inclusive: PBM binding z-score at least 3? input: TCTCGTAGGACACGAAGGTCAGAGCTTTCCAGAG
Solution: class 0

Problem: // inclusive: PBM binding z-score at least 3? input: CCTGTTAGTTGACCATAAGGGCAACCGAAGCTCG
Solution: class 0

Problem: // inclusive: PBM binding z-score at least 3? input: CAAACTAGGTCAAGGACAGTGAATCTCCGCACGC
Solution: class 1

Problem: // inclusive: PBM binding z-score at least 3? input: GGAGCGAGGGCATTCGAGTTGATAGCATGGCGAT
Solution: class 0

New cases:
Problem: // inclusive: PBM binding z-score at least 3? input: TCATATAGGTAAACAGGTGAAAGTCCGTAAGTTA
Solution: class 1

Problem: // inclusive: PBM binding z-score at least 3? input: CCTGCCAGGTCAATGGTCAGCTAAAGCAGCTCGC
Solution: class 0

Problem: // inclusive: PBM binding z-score at least 3? input: TCAAGTAGGTTAGTCGGGGCATTCAGCCAACATA
Solution: class 1

Problem: // inclusive: PBM binding z-score at least 3? input: ATATGTCGGTTATCGGGTCATTCAGTTTGCGCAT
Solution: class 0

Problem: // inclusive: PBM binding z-score at least 3? input: CCTATTAGTTGACCATAAGGGCAATCGAAGCTCG
Solution: class 0

Problem: // inclusive: PBM binding z-score at least 3? input: TCTAGTTGGTCAAAGGTCAGACACTCGAAATGCG
Solution: class 1

Problem: // inclusive: PBM binding z-score at least 3? input: CGTCCAAGGCCAGCAGGTCAGTGAAAGCGACGTG
Solution: class 0

Problem: // inclusive: PBM binding z-score at least 3? input: TCTAGCAGGCCAGAGGGTCGCTCAAGAGGTACGG
Solution: class 0

Problem: // inclusive: PBM binding z-score at least 3? input: AGAATGAGGTTACCATAGATCAGGGAAACGCTTG
Solution: class 0

Problem: // inclusive: PBM binding z-score at least 3? input: CCGGCTAGGTCAATGGTCAGCTAAAGCAGCTCGC
Solution: class 1

---

Tested on: PPARg homodimer (NR concentration 180 nM)
Experiment: PBM binding z-score (relative to random genomic background probes); higher = stronger binding; sequences stand for … in GC…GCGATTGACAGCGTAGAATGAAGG
Listed here: items and their measured PBM binding z-score.
// print number alone

Problem: Quickly give me recorded PBM binding z-score for CGTCCAAGGTCAGAGAGGTTAGTGAATGCCGAGT
Solution: 2.06

Problem: Quickly give me recorded PBM binding z-score for TCATATACGTAATACAGGTGAAAGTCGGCATCTA
Solution: 1.17

Problem: Quickly give me recorded PBM binding z-score for CAAACTAGCTCAAGAGGTCAAAGTCCGCTTCCCG
Solution: 2.37

Now let's try a different one.
Problem: Quickly give me recorded PBM binding z-score for ACTATTAGTTGAGAGGAGGGCAACCGATAGGTTG
Solution: 0.333

---

System: VDR:RXRa (NR concentration 270 nM, RXRa partner concentration 90 nM)
Assay: PBM binding z-score (relative to random genomic background probes); higher = stronger binding; sequences stand for … in GC…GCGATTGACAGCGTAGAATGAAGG
measurement-type: PBM binding z-score
// print number alone

Answered examples (4):
Problem: Quickly give me recorded PBM binding z-score for ATCTCTAGGTAAGACTCAGTTCAGTCAAGAACGC
Solution: 0.989

Problem: Quickly give me recorded PBM binding z-score for GGTACAGGGTCAGCTAGAGGCCAGAGTATGGAAA
Solution: 3.29

Problem: Quickly give me recorded PBM binding z-score for CCTTACGGGTCACTCCCGGTTATAGCATCGGAGT
Solution: 3.03

Problem: Quickly give me recorded PBM binding z-score for TAGCCTATGTCATGGGCCAGTATACCACGCGAAC
Solution: -0.365

New cases:
Problem: Quickly give me recorded PBM binding z-score for CCTACTGGGCCAAGGGCATTGATCAGTCAAAGCA
Solution: -0.469

Problem: Quickly give me recorded PBM binding z-score for TCTCGGAGGACCCGAAGGTCAGAGCTTTCCAGAG
Solution: 0.636

Problem: Quickly give me recorded PBM binding z-score for GCTATTAATTGAAAGGGCAACCGAATGATTCTCG
Solution: 0.257

Problem: Quickly give me recorded PBM binding z-score for AATACAGGGTAATCGTAGGCCAGAGTACGCACAG
Solution: 0.0104

Problem: Quickly give me recorded PBM binding z-score for TCTAGTTGTTCACGGAGGTCACACACGACGGGTA
Solution: 4.1

Problem: Quickly give me recorded PBM binding z-score for TCTAGCAGGCCAGAGGGTCAGTCAAGAGGTACGG
Solution: 0.113

Problem: Quickly give me recorded PBM binding z-score for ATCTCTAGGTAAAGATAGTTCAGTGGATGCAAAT
Solution: 0.451

Problem: Quickly give me recorded PBM binding z-score for CCAGACAGGTGAGAAGATAACTCAGCCTCGATTA
Solution: 0.035

Problem: Quickly give me recorded PBM binding z-score for CCGACTGGGGCAGAAAGGTTACAATACCATCCGG
Solution: 1

Problem: Quickly give me recorded PBM binding z-score for ATCGAAAGGTCGACAAGGTGAGTATACACCGTTT
Solution: 4.61

Problem: Quickly give me recorded PBM binding z-score for CTCGAAAGTTCGGTTGAGGTGAGTATACGGATAA
Solution: 0.728

---

Tested on: RARb homodimer (NR concentration 270 nM)
Experiment: PBM binding z-score (relative to random genomic background probes); higher = stronger binding; sequences stand for … in GC…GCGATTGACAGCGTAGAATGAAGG
measurement-type: PBM binding z-score
// print number alone

Problem: Quickly give me recorded PBM binding z-score for ACTAGCAGGCCAAGTTCGGGTCACTCAAACAAAG
Solution: 2.96

Problem: Quickly give me recorded PBM binding z-score for AGGCAAAGTTCAGGACGAGGTAACGTAAAGCACG
Solution: 3.36

New cases:
Problem: Quickly give me recorded PBM binding z-score for CCTAGTTGGTCAGGAGGTCACAGACCGGATATGA
Solution: 4.29

Problem: Quickly give me recorded PBM binding z-score for TCTGCTAGGTCAGTTGTTCAGCTAACGAGCTGCC
Solution: 2.19

Problem: Quickly give me recorded PBM binding z-score for CCTACTGGGCCATCAGGTCAATGATATCAACGTT
Solution: 2.67

Problem: Quickly give me recorded PBM binding z-score for CCTACTGGGCCATCAGGTCATTAATATCAACGTT
Solution: 2.55

---

Listed here: items and their measured PBM binding z-score.
System: RXRa homodimer (NR concentration 180 nM)
Test: PBM binding z-score (relative to random genomic background probes); higher = stronger binding; sequences stand for … in GC…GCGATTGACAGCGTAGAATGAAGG
// print number alone

Answered examples (6):
Problem: Quickly give me recorded PBM binding z-score for CGTCCAAGGACAAAGGTCAGTGAAGAGATGACGG
Solution: 4.03

Problem: Quickly give me recorded PBM binding z-score for CCCACTGGGCCAAAGGTCATTGATTCCAATGCTC
Solution: 6.2

Problem: Quickly give me recorded PBM binding z-score for ACAGACAGGTGAGTGAAAGTAACTCAGCTGGACG
Solution: 0.309

Problem: Quickly give me recorded PBM binding z-score for AGTCAAAGATCATCTAGGTAACGTAAGATATGCT
Solution: 0.746

Problem: Quickly give me recorded PBM binding z-score for AGCACGAGGGCACGCTGAGTTGATAGCAGAGTAG
Solution: 1.52

Problem: Quickly give me recorded PBM binding z-score for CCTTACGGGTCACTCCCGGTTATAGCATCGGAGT
Solution: 4.33

New cases:
Problem: Quickly give me recorded PBM binding z-score for ACTAGCAGGCCAAGTTTGGGTCACTCTAACAAAG
Solution: 0.429

Value source: the supplement of paper PMC6555819
